# target-of-assay: Dual specificity protein phosphatase 1 (Homo sapiens) (UniProt P28562)
# Sequence (P28562 whole entry, looked up): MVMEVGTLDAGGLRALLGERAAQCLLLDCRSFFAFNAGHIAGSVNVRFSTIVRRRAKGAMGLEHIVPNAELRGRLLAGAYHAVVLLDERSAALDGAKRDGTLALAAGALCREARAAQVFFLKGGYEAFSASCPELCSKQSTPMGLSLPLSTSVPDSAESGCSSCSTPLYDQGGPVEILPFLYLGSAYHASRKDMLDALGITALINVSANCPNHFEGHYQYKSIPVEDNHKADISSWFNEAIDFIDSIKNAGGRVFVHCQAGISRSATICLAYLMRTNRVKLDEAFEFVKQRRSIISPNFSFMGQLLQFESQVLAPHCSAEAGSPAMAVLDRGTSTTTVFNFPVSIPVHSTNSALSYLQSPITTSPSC
# test-name: inhibitors of DUSP1 phosphatase activity – biochemical, DiFMUP, fluorescence, selectivity assay for VHR1 inhibitor project, SAR follow-up (AID 2083)
# details: recombinant MKP-1, DiFMUP fluorescence
pIC50: −log10 of the molar value.
test-readout: pIC50

O=C1/C(=C/c2cn(-c3ccccc3)nc2-c2ccc(OCc3ccc(Cl)cc3)cc2)SC(=S)N1CCS(=O)(=O)O
6.34
O=C1/C(=C/c2cn(-c3ccccc3)nc2-c2ccc(OCc3ccccc3F)cc2)SC(=S)N1CCS(=O)(=O)O
6.28

1: O=C1/C(=C/c2cn(-c3ccccc3)nc2-c2ccc(OCc3ccccc3)cc2)SC(=S)N1CCS(=O)(=O)O
2: O=C1/C(=C/c2cn(-c3ccccc3)nc2-c2ccc(S(=O)(=O)N3CCCCC3)cc2)SC(=S)N1CCS(=O)(=O)O
3: O=C1/C(=C/c2cn(-c3ccccc3)nc2-c2ccc(OCc3ccccc3Cl)cc2)SC(=S)N1CCS(=O)(=O)O
Request: Please give the order of these compounds when sorted by pIC50, largest value leading. Please list the labels in the order you were asked to rank them.
Result: 3, 1, 2
(3: 6.33, 1: 6.11, 2: 5.55)
